test system: A498 renal; test: NCI-60 one-dose screen, 48 h; details: 10 µM unless noted
Compounds without any hit were thinned out: in the full panel of roughly 83,000, 20% have a hit. The source made the active and inactive calls. The calls were made as follows: active = growth percent below 10; inactive = the rest.
Classes used: class 1 (active), class 0 (inactive)

>  <compound>
Clc1ccc(-c2cc(-c3ccccc3)nc(NCCNc3ccnc4cc(Cl)ccc34)n2)cc1

>  <classification>
class 0

$$$$
>  <compound>
NS(=O)(=O)c1ccc(NC(=O)/C(=C\c2ccc(Cl)cc2Cl)NC(=O)c2ccccc2)cc1

>  <classification>
class 0

$$$$
>  <compound>
c1ccc(CCNc2c3ccccc3nc3ccccc23)cc1

>  <classification>
class 1

$$$$
>  <compound>
COc1ccc(-c2nc3c(N)c(CO)cnc3s2)cc1

>  <classification>
class 1

$$$$
>  <compound>
O=C(CCCCCCN1CC(=O)N2[C@H](c3ccc(Cl)cc3)c3[nH]c4ccccc4c3C[C@@H]2C1=O)NO

>  <classification>
class 0

$$$$
>  <compound>
CCN(CC)CCCN1C(=O)c2c(c(C)c3c(oc4ccc(OC)cc43)c2C)C1=O

>  <classification>
class 0

$$$$
>  <compound>
C=C1C(=O)O[C@H]2[C@H]1CC/C(COC(=O)NCc1ccc(Cn3c(=O)sn(-c4ccc(C#N)cc4)c3=O)cc1)=C\CC[C@@]1(C)O[C@@H]21

>  <classification>
class 0

$$$$
>  <compound>
C#CC#CC#CC#CC#CC#CC#CC#CCC1OC[C@H](COC(=O)O[C@@H](C(=O)O[C@H]2C[C@@]3(O)[C@@H](OC(=O)c4ccccc4)[C@@H]4[C@]5(OC(C)=O)CO[C@@H]5C[C@H](O)[C@@]4(C)C(=O)[C@H](OC(C)=O)C(=C2C)C3(C)C)[C@@H](NC(=O)c2ccccc2)c2ccccc2)O1 (stereo not given in full)

>  <classification>
class 1

$$$$
>  <compound>
CN(C)CCN1C(=O)c2cccc3c(/C=C/CN4C(=O)c5cccc6cccc(c56)C4=O)ccc(c23)C1=O

>  <classification>
class 0

$$$$
>  <compound>
COc1cccc(/C=N/NC(=O)c2ccccc2N2CCCC2)c1O

>  <classification>
class 0

$$$$
>  <compound>
Oc1c(CN2CCCC2)cc(CSCc2ccccc2)c2cccnc12

>  <classification>
class 1

$$$$
>  <compound>
C=C1CC[C@@H]2C(C)(C)[C@@H](O)CC[C@@]2(C)[C@@H]1COc1ccc2ccc(=O)oc2c1

>  <classification>
class 0

$$$$
>  <compound>
O=P(O)(O)OCC1OC(n2cnc3c(NCc4ccco4)ncnc32)C(O)C1O (stereo not given)

>  <classification>
class 1

$$$$
>  <compound>
C#CC#CC#CC#CC#CC#CC#CC#CC[C@@H]1OC[C@@H](COC(=O)O[C@@H](C(=O)O[C@H]2C[C@@]3(O)[C@@H](OC(=O)c4ccccc4)[C@@H]4[C@]5(OC(C)=O)CO[C@@H]5C[C@H](O)[C@@]4(C)C(=O)[C@H](OC(C)=O)C(=C2C)C3(C)C)[C@@H](NC(=O)c2ccccc2)c2ccccc2)O1

>  <classification>
class 0

$$$$
>  <compound>
COc1ccc(C[n+]2c3ccccc3n3c4ccc(N)cc4ccc32)c(OC)c1OC

>  <classification>
class 0

$$$$

* * *

System: NCI-H522 lung
Assay: NCI-60 one-dose screen, 48 h
Settings: 10 µM unless noted
Method: Growth inhibition of the NCI-H522 human Non-Small Cell Lung tumor cell line is measured as a screen for anti-cancer activity. Cells are grown in 96 well plates and exposed to the test compound for 48 hours. Compounds are tested at a single concentration, which is 10^-5 M for most compounds. The reported endpoint is percent growth (GI% or GIPRCNT), where numbers from 0 - 100% represent growth inhibition, and numbers from -100% - 0 represent cell death. […]
About 83,000 compounds went through this panel and 20% of them were active in at least one assay; those are over-represented in the sample as a whole. Active and inactive are the calls of the source. The calls were made as follows: active = growth percent below 10; inactive = the rest.
Outcome codes: active, inactive

>  <record-smiles>
COc1ccc(/C(C)=C(\c2ccc(Cl)cc2)c2ccc(OCCN3CCCCC3)cc2)cc1

>  <classification>
inactive

$$$$
>  <record-smiles>
Cc1ccc(C)c2c(C)c(C(=O)Nc3cccc(-n4cccn4)c3)oc12

>  <classification>
inactive

$$$$
>  <record-smiles>
COc1ccc(-c2nc(-c3cn(C)c4ncccc34)cs2)cc1

>  <classification>
inactive

$$$$
>  <record-smiles>
CN(CCCNC(=O)CCOCCOCCOCCNC(=O)Cc1ccc2ccc3cccc4ccc1c2c34)CCCNc1cc(-c2ccc3ccccc3c2)nc2ccccc12

>  <classification>
active

$$$$
>  <record-smiles>
Cc1cccc(-c2nc(Nc3ccc4ncsc4c3)c3ccccc3n2)n1

>  <classification>
inactive

$$$$
>  <record-smiles>
COc1cc(C(=O)c2c(-c3ccccc3)oc3c(OC)cccc23)cc(OC)c1OC

>  <classification>
inactive

$$$$
>  <record-smiles>
O=C(CC(=O)Nc1cccc(C(=O)O)c1)Nc1cccc(C(=O)O)c1

>  <classification>
inactive

$$$$
>  <record-smiles>
C/C(Cc1ccc(Cl)cc1)=C(\c1ccc(OCCCN(C)C)cc1)c1ccc(OC(=O)Cc2ccccc2)cc1

>  <classification>
inactive

$$$$
>  <record-smiles>
Cc1ccc2nc(-c3ccc(C(=O)NNC(=S)Nc4ccccc4)cc3)[nH]c2c1

>  <classification>
inactive

$$$$
